system: MCF7; experiment: Cytotoxicity against human MCF7 cells incubated for 72 hrs by MTT assay; settings: MCF7, 72 h
valueType: pIC50
Give bare numbers, as −log10 of the molar value.

Consider the worked cases shown below.
# cpdSmiles, pIC50
records = [
    ("COc1ccc(/C=C/C(=O)c2ccc(Cl)c3c2OC(C)(C)C=C3)cc1NCC(=O)NO", 6.32),
    ("COc1ccc(/C=C/C(=O)c2ccc(Br)c3c2OC(C)(C)C=C3)cc1OCC(=O)NO", 5.74),
    ("COc1ccc(/C=C/C(=O)c2ccc(OC)c3c2OC(C)(C)C=C3)cc1OCCCC(=O)NO", 5.25),
]

Lab note: next molecule to report on.
# lookup: COc1ccc(/C=C/C(=O)c2ccc(OC)c3c2OC(C)(C)C=C3)cc1NCC(=O)NO on MCF7, pIC50 = 6.80

###

tested on: U-251; assay: Cytotoxicity against human U-251 cells incubated for 72 hrs by MTT assay; settings: U-251, 72 h
I'd appreciate it if you could supply log10(IC50) values for the items below.
Values are log10 of IC50 in µM.

# cpdSmiles, numericResult
rows = [
    ("COc1ccc(/C=C/C(=O)c2ccc(Cl)c3c2OC(C)(C)C=C3)cc1NCC(=O)Nc1ccccc1N", 0.67),
]

Okay, here is my list. What is log10(IC50) for each of these?
1. COc1ccc(/C=C/C(=O)c2ccc(Cl)c3c2OC(C)(C)C=C3)cc1NCC(=O)NO
2. COc1ccc(/C=C/C(=O)c2ccc(Br)c3c2OC(C)(C)C=C3)cc1OCC(=O)NO

**A:**
-0.60
-0.31

###

test: MRT(0 to t) in Sprague-Dawley rat at 2 mg/kg, iv measured upto 24 hrs by HPLC-MS analysis; format: ADME, organism-based; settings: in vivo
valueType: MRT last at 24 h (h)
Answers are plain numbers, in h.

compound COc1ccc(/C=C/C(=O)c2ccc(OC)c3c2OC(C)(C)C=C3)cc1NCC(=O)NO , MRT last at 24 h observed: 1.32

###

experiment: Half-life in Sprague-Dawley rat at 2 mg/kg, iv measured upto 24 hrs by HPLC-MS analysis; assay type: ADME, organism-based; details: in vivo
valueType: half-life (min)
Give bare numbers, in min.

compound COc1ccc(/C=C/C(=O)c2ccc(OC)c3c2OC(C)(C)C=C3)cc1NCC(=O)NO , half-life observed: 54.6

###

biological target: Protein deacetylase HDAC6 (Homo sapiens); experiment: Inhibition of HDAC6 in human HeLa nuclear extracts incubated for 30 mins by fluorescence based assay
Sequence (Q9UBN7 whole entry): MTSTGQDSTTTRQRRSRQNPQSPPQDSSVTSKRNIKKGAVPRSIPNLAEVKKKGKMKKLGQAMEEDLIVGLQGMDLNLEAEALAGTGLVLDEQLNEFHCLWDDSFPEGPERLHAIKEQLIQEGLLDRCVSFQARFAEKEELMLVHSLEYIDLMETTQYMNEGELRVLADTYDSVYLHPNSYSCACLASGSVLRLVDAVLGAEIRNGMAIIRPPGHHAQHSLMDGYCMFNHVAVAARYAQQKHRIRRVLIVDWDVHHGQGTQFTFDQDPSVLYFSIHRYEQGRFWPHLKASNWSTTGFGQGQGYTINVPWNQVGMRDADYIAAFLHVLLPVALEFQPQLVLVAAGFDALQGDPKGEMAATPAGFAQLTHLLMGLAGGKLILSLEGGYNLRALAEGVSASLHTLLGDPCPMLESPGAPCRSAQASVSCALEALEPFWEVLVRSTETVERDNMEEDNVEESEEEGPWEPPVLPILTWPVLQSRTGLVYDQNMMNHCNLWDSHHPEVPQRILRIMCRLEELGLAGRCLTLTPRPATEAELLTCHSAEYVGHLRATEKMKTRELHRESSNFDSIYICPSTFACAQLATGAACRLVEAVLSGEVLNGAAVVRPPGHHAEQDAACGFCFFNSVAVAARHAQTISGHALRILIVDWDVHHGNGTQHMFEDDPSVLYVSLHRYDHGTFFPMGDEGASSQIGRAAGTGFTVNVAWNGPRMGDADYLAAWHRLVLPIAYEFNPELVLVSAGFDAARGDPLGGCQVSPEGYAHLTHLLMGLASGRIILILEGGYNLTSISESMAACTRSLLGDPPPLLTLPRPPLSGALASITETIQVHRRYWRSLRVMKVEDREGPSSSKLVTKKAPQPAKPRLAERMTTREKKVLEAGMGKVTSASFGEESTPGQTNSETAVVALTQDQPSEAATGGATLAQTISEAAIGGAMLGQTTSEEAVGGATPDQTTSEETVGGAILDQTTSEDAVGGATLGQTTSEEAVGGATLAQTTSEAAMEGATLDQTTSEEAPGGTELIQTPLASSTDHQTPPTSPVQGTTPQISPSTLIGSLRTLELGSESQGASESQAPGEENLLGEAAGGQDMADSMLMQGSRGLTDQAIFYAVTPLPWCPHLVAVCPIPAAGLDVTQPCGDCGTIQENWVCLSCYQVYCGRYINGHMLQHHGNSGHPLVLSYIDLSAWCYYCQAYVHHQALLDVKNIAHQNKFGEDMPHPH
I'd appreciate it if you could supply IC50 values for the items below.
Answers are plain numbers, in µM.

# cpdSmiles, unitsSymbol, IC50
rows = [
    ("COc1ccc(/C=C/C(=O)c2ccc(Br)c3c2OC(C)(C)C=C3)cc1OCC(=O)NO", "µM", 1.21),
]

Okay, here is my list. What is IC50 for each of these?
1. COc1ccc(/C=C/C(=O)c2ccc(OC)c3c2OC(C)(C)C=C3)cc1NCC(=O)NO
2. COc1ccc(/C=C/C(=O)c2ccc(Br)c3c2OC(C)(C)C=C3)cc1NCC(=O)NO

**A:**
[0.62, 3.35]

###

biological target: UniProtKB Q92769; experiment: Inhibition of HDAC2 in human HeLa nuclear extracts incubated for 30 mins by fluorescence based assay; assay type: cell-based
Sequence (Q92769 whole entry): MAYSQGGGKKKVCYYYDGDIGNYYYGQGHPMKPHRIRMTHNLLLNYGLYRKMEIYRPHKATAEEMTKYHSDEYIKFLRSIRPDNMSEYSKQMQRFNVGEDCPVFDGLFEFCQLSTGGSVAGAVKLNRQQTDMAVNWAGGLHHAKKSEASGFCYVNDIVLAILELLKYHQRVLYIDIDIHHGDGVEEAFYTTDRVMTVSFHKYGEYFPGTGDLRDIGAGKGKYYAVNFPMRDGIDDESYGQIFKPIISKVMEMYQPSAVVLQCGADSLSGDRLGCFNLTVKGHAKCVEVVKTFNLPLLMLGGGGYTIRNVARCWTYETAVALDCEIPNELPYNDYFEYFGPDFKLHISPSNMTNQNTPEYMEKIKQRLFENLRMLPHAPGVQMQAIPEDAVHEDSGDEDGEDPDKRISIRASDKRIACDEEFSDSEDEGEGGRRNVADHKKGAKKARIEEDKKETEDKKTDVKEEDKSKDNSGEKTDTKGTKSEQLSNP
I'd appreciate it if you could supply IC50 values for the items below.
Answers are plain numbers, in nM.

# cpdSmiles, targetOfAssay, IC50, nM
data = [
    ("COc1ccc(/C=C/C(=O)c2ccc(Br)c3c2OC(C)(C)C=C3)cc1NCC(=O)NO", "UniProtKB Q92769", 1430),
    ("COc1ccc(/C=C/C(=O)c2ccc(OC)c3c2OC(C)(C)C=C3)cc1NCC(=O)NO", "UniProtKB Q92769", 430),
]

molecule COc1ccc(/C=C/C(=O)c2ccc(Br)c3c2OC(C)(C)C=C3)cc1OCC(=O)NO , IC50 observed: 830

###

I'd appreciate it if you could supply pIC50 values for the items below.
system: MCF7; test: Cytotoxicity against human MCF7 cells incubated for 72 hrs by MTT assay; conditions: MCF7, 72 h
pIC50: −log10 of the molar value.

Consider the worked cases shown below.
# cpdSmiles, pIC50
data = [
    ("COc1ccc(/C=C/C(=O)c2ccc(OC)c3c2OC(C)(C)C=C3)cc1OCCCCCCC(=O)Nc1ccccc1N", "< 5.00"),
    ("COc1ccc(/C=C/C(=O)c2ccc(OC)c3c2OC(C)(C)C=C3)cc1OCCCCC(=O)NO", "< 5.00"),
]

Lab note: next molecule to report on.
molecule COc1ccc(/C=C/C(=O)c2ccc(OC)c3c2OC(C)(C)C=C3)cc1NCCCCCCC(=O)NO , pIC50 observed: < 5.00

###

system: U-251; experiment: Cytotoxicity against human U-251 cells incubated for 72 hrs by MTT assay; conditions: U-251, 72 h
I'd appreciate it if you could supply pIC50 values for the items below.
Numbers only, as −log10 of the molar value.

Okay, here is my list. What is pIC50 for each of these?
1. COc1ccc(/C=C/C(=O)c2ccc(Br)c3c2OC(C)(C)C=C3)cc1NCC(=O)NO
2. COc1ccc(/C=C/C(=O)c2ccc(Br)c3c2OC(C)(C)C=C3)cc1OCC(=O)Nc1ccccc1N
3. COc1ccc(/C=C/C(=O)c2ccc(OC)c3c2OC(C)(C)C=C3)cc1OCC(=O)NO

**A:**
1. 6.85
2. 5.18
3. 6.32

###

tested on: U-251; assay: Cytotoxicity against human U-251 cells incubated for 72 hrs by MTT assay; conditions: U-251, 72 h
valueType: IC50

Consider the worked cases shown below.
# cpdSmiles, targetOfAssay, IC50
records = [
    ("COc1ccc(/C=C/C(=O)c2ccc(OC)c3c2OC(C)(C)C=C3)cc1NCCCCCCC(=O)NO", "U-251", "> 10 µM"),
    ("COc1ccc(/C=C/C(=O)c2ccc(OC)c3c2OC(C)(C)C=C3)cc1NCCCCCC(=O)Nc1ccccc1N", "U-251", "> 10 µM"),
    ("COc1ccc(/C=C/C(=O)c2ccc(OC)c3c2OC(C)(C)C=C3)cc1OCCCCC(=O)NO", "U-251", "> 10 µM"),
    ("COc1ccc(/C=C/C(=O)c2ccc(OC)c3c2OC(C)(C)C=C3)cc1OCC(=O)Nc1ccccc1N", "U-251", "7.6 µM"),
    ("COc1ccc(/C=C/C(=O)c2ccc(OC)c3c2OC(C)(C)C=C3)cc1OCCCCCCC(=O)NO", "U-251", "> 10 µM"),
]

Okay, here is my list. What is IC50 for each of these?
1. COc1ccc(/C=C/C(=O)c2ccc(Cl)c3c2OC(C)(C)C=C3)cc1OCC(=O)NO
2. COc1ccc(/C=C/C(=O)c2ccc(OC)c3c2OC(C)(C)C=C3)cc1OCCCCCC(=O)Nc1ccccc1N
3. COc1ccc(/C=C/C(=O)c2ccc(OC)c3c2OC(C)(C)C=C3)cc1OCCCC(=O)Nc1ccccc1N
4. COc1ccc(/C=C/C(=O)c2ccc(OC)c3c2OC(C)(C)C=C3)cc1
5. COc1ccc(/C=C/C(=O)c2ccc(OC)c3c2OC(C)(C)C=C3)cc1NCCCCCC(=O)NO
6. COc1ccc(/C=C/C(=O)c2ccc(OC)c3c2OC(C)(C)C=C3)cc1OCCCCC(=O)Nc1ccccc1N
7. COc1ccc(/C=C/C(=O)c2ccc(OC)c3c2OC(C)(C)C=C3)cc1OCCCCCC(=O)NO

**A:**
1.76 µM
> 10 µM
7.52 µM
3.72 µM
> 10 µM
> 10 µM
> 10 µM
